These entries and their values trace back to PubChem BioAssay AID2060607.

# Tested on: 876862-298-R-J1-PDC complex spheroids, viability % test/control
# Test: Anticancer human tumor 876862-298-R-J1-PDC patient-derived endometrial carcinoma cell line growth inhibition [CLK]; active = viability on the fitted dose curve at most 10% of control; inactive = the rest
# Measurement Conditions: second compound 3.16 µM; first compound 0.0316 µM
Classes used: Y for active, N for inactive

* CC1(C)CCC(CN2CCN(c3ccc(C(=O)NS(=O)(=O)c4ccc(NCC5CCOCC5)c([N+](=O)[O-])c4)c(Oc4cnc5[nH]ccc5c4)c3)CC2)=C(c2ccc(Cl)cc2)C1 + CN1CCN(c2cc(C(=O)Nc3cc4cc(-c5cnn(C)c5)ccc4cn3)ccn2)CC1 | Y
* COc1cccc2c1C(=O)c1c(O)c3c(c(O)c1C2=O)CC(O)(C(=O)CO)CC3OC1CC(N)C(O)C(C)O1 (stereo not given) + CN1CCN(c2cc(C(=O)Nc3cc4cc(-c5cnn(C)c5)ccc4cn3)ccn2)CC1 | Y
* O=c1[nH]cc(F)c(=O)[nH]1 + CN1CCN(c2cc(C(=O)Nc3cc4cc(-c5cnn(C)c5)ccc4cn3)ccn2)CC1 | Y
* CCCS(=O)(=O)Nc1ccc(F)c(C(=O)c2c[nH]c3ncc(-c4ccc(Cl)cc4)cc23)c1F + CNC(=O)c1ccc(Nc2nc(OC3CCCC3)c3c(-c4ccc5nc(C)oc5c4)c[nH]c3n2)c(OC)c1 | N
* C=CC(=O)N1CCN(c2nc(=O)n(-c3c(C)ccnc3C(C)C)c3nc(-c4c(O)cccc4F)c(F)cc23)C(C)C1 (stereo not given) + CNC(=O)c1ccc(Nc2nc(OC3CCCC3)c3c(-c4ccc5nc(C)oc5c4)c[nH]c3n2)c(OC)c1 | N
* Nc1ccn(C2OC(CO)C(O)C2(F)F)c(=O)n1 (stereo not given) + CN1CCN(c2cc(C(=O)Nc3cc4cc(-c5cnn(C)c5)ccc4cn3)ccn2)CC1 | Y
* CC1(C)CCC(CN2CCN(c3ccc(C(=O)NS(=O)(=O)c4ccc(NCC5CCOCC5)c([N+](=O)[O-])c4)c(Oc4cnc5[nH]ccc5c4)c3)CC2)=C(c2ccc(Cl)cc2)C1 + CNC(=O)c1ccc(Nc2nc(OC3CCCC3)c3c(-c4ccc5nc(C)oc5c4)c[nH]c3n2)c(OC)c1 | N
* Cn1ncnc1[C@H]1c2n[nH]c(=O)c3cc(F)cc(c23)N[C@@H]1c1ccc(F)cc1 + CNC(=O)c1ccc(Nc2nc(OC3CCCC3)c3c(-c4ccc5nc(C)oc5c4)c[nH]c3n2)c(OC)c1 | N
* C=C(F)C(=O)N1CCN(c2nc(OCC3CCCN3C)nc3c2CCN(c2cccc4cccc(Cl)c24)C3)CC1CC#N (stereo not given) + CN1CCN(c2cc(C(=O)Nc3cc4cc(-c5cnn(C)c5)ccc4cn3)ccn2)CC1 | Y
* O=C(c1cc(Cc2n[nH]c(=O)c3ccccc23)ccc1F)N1CCN(C(=O)C2CC2)CC1 + CN1CCN(c2cc(C(=O)Nc3cc4cc(-c5cnn(C)c5)ccc4cn3)ccn2)CC1 | Y

###

# Test system: 876862-298-R-J1-PDC complex spheroids, viability % test/control
# Test: Anticancer human tumor 876862-298-R-J1-PDC cell line growth inhibition [CLK];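 note: spheroids exposed to drugs for 7 days before readout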;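 for viability, T/C: 100% = DMSO vehicle control wells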
# Measurement Conditions: second compound 0.316 µM; first compound 0.00949 µM; stronger effect = lower value
# From the text: A high-throughput screen of multi-cell type tumor spheroids was designed to identify active combinations of […] and targeted small molecules. Complex spheroids include a stromal component modeled by human endothelial cells (HUVEC) and fibroblasts modeled by human mesenchymal stem cells (MSCs). […] Compounds. […] If the clinical Cmax for an agent had not been determined, the highest concentration tested was 10 microM. […]
Outcome Measure: viability, T/C (%)

• C=CC(=O)Nc1cc(Nc2nccc(-c3cn(C)c4ccccc34)n2)c(OC)cc1N(C)CCN(C)C + CN1CCN(c2cc(C(=O)Nc3cc4cc(-c5cnn(C)c5)ccc4cn3)ccn2)CC1 = 3.52
• C=CC(=O)Nc1cc(Nc2nccc(-c3cn(C)c4ccccc34)n2)c(OC)cc1N(C)CCN(C)C + CNC(=O)c1ccc(Nc2nc(OC3CCCC3)c3c(-c4ccc5nc(C)oc5c4)c[nH]c3n2)c(OC)c1 = 42.3
• CC(C)CC(NC(=O)C(Cc1ccccc1)NC(=O)c1cnccn1)B(O)O (stereo unspecified) + CNC(=O)c1ccc(Nc2nc(OC3CCCC3)c3c(-c4ccc5nc(C)oc5c4)c[nH]c3n2)c(OC)c1 = 1.95
• NC(=O)C(=Cn1cnc(-c2cc(C(F)(F)F)cc(C(F)(F)F)c2)n1)c1cncnc1 + CN1CCN(c2cc(C(=O)Nc3cc4cc(-c5cnn(C)c5)ccc4cn3)ccn2)CC1 = 1.38
• NC(=O)C(=Cn1cnc(-c2cc(C(F)(F)F)cc(C(F)(F)F)c2)n1)c1cncnc1 + CNC(=O)c1ccc(Nc2nc(OC3CCCC3)c3c(-c4ccc5nc(C)oc5c4)c[nH]c3n2)c(OC)c1 = 35.7
• CC(C)CC(NC(=O)C(Cc1ccccc1)NC(=O)c1cnccn1)B(O)O (stereo unspecified) + CN1CCN(c2cc(C(=O)Nc3cc4cc(-c5cnn(C)c5)ccc4cn3)ccn2)CC1 = 1.45

###

# Tested on: 876862-298-R-J1-PDC complex spheroids, viability % test/control
# Test: Anticancer human tumor 876862-298-R-J1-PDC cell line growth inhibition [CLK];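 note: spheroids exposed to drugs for 7 days before readout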
# Measurement Conditions: curve of first compound; second compound 0.1 µM
pIC50: −log10 of the molar value.
// pIC50 lookup, one value per entry
Outcome Measure: pIC50

* C#Cc1c(F)ccc2cc(O)cc(-c3ncc4c(N5CC6CCC(C5)N6)nc(OCC56CCCN5CC(F)C6)nc4c3F)c12 (centres undefined) + CNC(=O)c1ccc(Nc2nc(OC3CCCC3)c3c(-c4ccc5nc(C)oc5c4)c[nH]c3n2)c(OC)c1 | > 7.50
* COc1ccc([C@@H](O)c2cc(-c3ncnc4cc(N5CCOCC5)ccc34)c(F)cc2Cl)nn1 + CNC(=O)c1ccc(Nc2nc(OC3CCCC3)c3c(-c4ccc5nc(C)oc5c4)c[nH]c3n2)c(OC)c1 | 7.09
* COc1ccc([C@@H](O)c2cc(-c3ncnc4cc(N5CCOCC5)ccc34)c(F)cc2Cl)nn1 + CN1CCN(c2cc(C(=O)Nc3cc4cc(-c5cnn(C)c5)ccc4cn3)ccn2)CC1 | > 7.50
* O=C(c1cc(Cc2n[nH]c(=O)c3ccccc23)ccc1F)N1CCN(C(=O)C2CC2)CC1 + CNC(=O)c1ccc(Nc2nc(OC3CCCC3)c3c(-c4ccc5nc(C)oc5c4)c[nH]c3n2)c(OC)c1 | 5.68
* C=CC(=O)Nc1cc(Nc2nccc(-c3cn(C)c4ccccc34)n2)c(OC)cc1N(C)CCN(C)C + CN1CCN(c2cc(C(=O)Nc3cc4cc(-c5cnn(C)c5)ccc4cn3)ccn2)CC1 | > 9.02
* COc1c(OCCCN2CCOCC2)ccc2c3n(c(=NC(=O)c4cnc(N)nc4)nc12)CCN3 + CN1CCN(c2cc(C(=O)Nc3cc4cc(-c5cnn(C)c5)ccc4cn3)ccn2)CC1 | > 8.50
* CC1COCCN1c1cc(C2(S(C)(=N)=O)CC2)nc(-c2ccnc3[nH]ccc23)n1 (centres undefined) + CN1CCN(c2cc(C(=O)Nc3cc4cc(-c5cnn(C)c5)ccc4cn3)ccn2)CC1 | > 7.50
* CC(C)CC(NC(=O)C(Cc1ccccc1)NC(=O)c1cnccn1)B(O)O (centres undefined) + CN1CCN(c2cc(C(=O)Nc3cc4cc(-c5cnn(C)c5)ccc4cn3)ccn2)CC1 | 9.01
* O=c1[nH]cc(F)c(=O)[nH]1 + CN1CCN(c2cc(C(=O)Nc3cc4cc(-c5cnn(C)c5)ccc4cn3)ccn2)CC1 | > 7.50

###

In this section, each of the compounds is paired with its reported IC50.
# Tested on: 876862-298-R-J1-PDC complex spheroids, viability % test/control
# Test: Anticancer human tumor 876862-298-R-J1-PDC cell line growth inhibition [CLK];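 note: spheroids exposed to drugs for 7 days before readout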
# Measurement Conditions: curve of first compound; second compound 0.1 µM
Outcome Measure: IC50

- NC(=O)C(=Cn1cnc(-c2cc(C(F)(F)F)cc(C(F)(F)F)c2)n1)c1cncnc1 + CN1CCN(c2cc(C(=O)Nc3cc4cc(-c5cnn(C)c5)ccc4cn3)ccn2)CC1: < 9.49 nM
- CC(Nc1ccc2c(c1)OCCn1cc(N3C(=O)OCC3C(F)F)nc1-2)C(N)=O (stereo not drawn) + CNC(=O)c1ccc(Nc2nc(OC3CCCC3)c3c(-c4ccc5nc(C)oc5c4)c[nH]c3n2)c(OC)c1: < 31.6 nM
- CCc1c2c(nc3ccc(O)cc13)-c1cc3c(c(=O)n1C2)COC(=O)[C@]3(O)CC + CN1CCN(c2cc(C(=O)Nc3cc4cc(-c5cnn(C)c5)ccc4cn3)ccn2)CC1: < 3.16 nM

###

Documented viability, T/C across a set of molecules
# Test system: 876862-298-R-J1-PDC complex spheroids, viability % test/control
# Test: Anticancer human tumor 876862-298-R-J1-PDC cell line growth inhibition [CLK];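 note: spheroids exposed to drugs for 7 days before readout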;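 for viability, T/C: 100% = DMSO vehicle control wells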
# Measurement Conditions: second compound 0.316 µM; first compound 0.0949 µM; stronger effect = lower value
Outcome Measure: viability, T/C (%)

• CC(C)CC(NC(=O)C(Cc1ccccc1)NC(=O)c1cnccn1)B(O)O (stereo unspecified) + CN1CCN(c2cc(C(=O)Nc3cc4cc(-c5cnn(C)c5)ccc4cn3)ccn2)CC1 = 0.5
• NC(=O)C(=Cn1cnc(-c2cc(C(F)(F)F)cc(C(F)(F)F)c2)n1)c1cncnc1 + CN1CCN(c2cc(C(=O)Nc3cc4cc(-c5cnn(C)c5)ccc4cn3)ccn2)CC1 = 0.86
• NC(=O)C(=Cn1cnc(-c2cc(C(F)(F)F)cc(C(F)(F)F)c2)n1)c1cncnc1 + CNC(=O)c1ccc(Nc2nc(OC3CCCC3)c3c(-c4ccc5nc(C)oc5c4)c[nH]c3n2)c(OC)c1 = 21.8
• C=CC(=O)Nc1cc(Nc2nccc(-c3cn(C)c4ccccc34)n2)c(OC)cc1N(C)CCN(C)C + CNC(=O)c1ccc(Nc2nc(OC3CCCC3)c3c(-c4ccc5nc(C)oc5c4)c[nH]c3n2)c(OC)c1 = 34
• CC(C)CC(NC(=O)C(Cc1ccccc1)NC(=O)c1cnccn1)B(O)O (stereo unspecified) + CNC(=O)c1ccc(Nc2nc(OC3CCCC3)c3c(-c4ccc5nc(C)oc5c4)c[nH]c3n2)c(OC)c1 = 1.66
• C=CC(=O)Nc1cc(Nc2nccc(-c3cn(C)c4ccccc34)n2)c(OC)cc1N(C)CCN(C)C + CN1CCN(c2cc(C(=O)Nc3cc4cc(-c5cnn(C)c5)ccc4cn3)ccn2)CC1 = 4.57
